# target.system: filamentous actin (F-actin) from rabbit skeletal muscle (rabbit, UniProt P68135 1-377)
# test.name: BLI; F-actin immobilised on Streptavidin (SA) biosensors through LAbio peptide; αcat-ABD in solution at various concentrations; 26 °C, Octet384; 2 mM Tris-HCl pH 8.0, 0.2 mM ATP, 0.5 mM DTT, 0.1 mM CaCl2, 50 mM KCl, 2 mM MgCl2, 0.1% BSA, 0.02% Tween-20; 2:1 heterogeneous ligand model
# condition.description: both partners purified
Recorded measurements of KD2 (2:1 heterogeneous ligand model), one per entry
Use µM as the unit, but write only the number.

αEcat-ABD L785A (domain or fragment, source: E. coli BL21-CodonPlus, purified (glutathione-sepharose, thrombin cleavage, Superdex 75); not shown: GST, N-terminal, cleaved) SRTSVQTEDDQLIAGQSARAIMAQLPQEQKAKIAEQVASFQEEKSKLDAEVSKWDDSGNDIIVLAKQMCMIMMEMTDFTRGKGPLKNTSDVISAAKKIAEAGSRMDKLGRTIADHCPDSACKQDLLAYLQRIAAYCHQLNICSKVKAEVQNLGGELVVSGVDSAMSLIQAAKNLMNAVVQTVKASYVASTKYQKSQGMASLNLPAVSWKMKAPEKKPLVKREKQDETQTKIKRASQKKHVNPVQALSEFKAMDSI
4.8
αEcat-ABD V714A (domain or fragment, source: E. coli BL21-CodonPlus, purified (glutathione-sepharose, thrombin cleavage, Superdex 75); not shown: GST, N-terminal, cleaved) SRTSVQTEDDQLIAGQSARAIMAQLPQEQKAKIAEQVASFQEEKSKLDAEVSKWDDSGNDIIALAKQMCMIMMEMTDFTRGKGPLKNTSDVISAAKKIAEAGSRMDKLGRTIADHCPDSACKQDLLAYLQRIALYCHQLNICSKVKAEVQNLGGELVVSGVDSAMSLIQAAKNLMNAVVQTVKASYVASTKYQKSQGMASLNLPAVSWKMKAPEKKPLVKREKQDETQTKIKRASQKKHVNPVQALSEFKAMDSI
0.7

(Q) So what's the measured KD2 (2:1 heterogeneous ligand model) for this one? αEcat-ABD V796A (domain or fragment, source: E. coli BL21-CodonPlus, purified (glutathione-sepharose, thrombin cleavage, Superdex 75); not shown: GST, N-terminal, cleaved) SRTSVQTEDDQLIAGQSARAIMAQLPQEQKAKIAEQVASFQEEKSKLDAEVSKWDDSGNDIIVLAKQMCMIMMEMTDFTRGKGPLKNTSDVISAAKKIAEAGSRMDKLGRTIADHCPDSACKQDLLAYLQRIALYCHQLNICSKAKAEVQNLGGELVVSGVDSAMSLIQAAKNLMNAVVQTVKASYVASTKYQKSQGMASLNLPAVSWKMKAPEKKPLVKREKQDETQTKIKRASQKKHVNPVQALSEFKAMDSI
(A) 1.8

Every entry's value here was drawn from paper PMC6269467.
